Quick reference: Tm (° C.) Na2HPO4/NaCl/EDTA of the listed items.
- Test system: 5′-(AAAAAAAAAAAAAA)-3′
- assay.summary: Tm of duplex (spectrophotometric melting curves)
- Type: binding
- condition.description: vs RNA 5′-(AAAAAAAAAAAAAA)-3′; 10 mM Na2HPO4 pH 7.0, 100 mM NaCl, 0.1 mM EDTA
Strand notation (5' to 3'): a small letter for the sugar, then the base; units joined by * are phosphorothioate-linked, units joined directly phosphodiester-linked; [ ] holds rarer units or linkages, { } end groups; capitals alone tell only the bases. Y = bicyclic LNA-type nucleotide of structure Y in the publication's (LNA marked in bold); l = locked nucleic acid (LNA); d = 2'-deoxy (DNA)

substance	Tm (° C.) Na2HPO4/NaCl/EDTA
5′-d(TTTTTTTTTTTTTT)-3′ (SEQ ID NO: 83): partly modified poly-T oligonucleotide with Z^T (44, 45) (DNA dTdTdTdTdTdTlTdTdTdTdTdTdTdT)	32 °C
5′-d(TTTTTTTTTTTTTT)-3′ (SEQ ID NO: 129): partly modified poly-T with monomer Y (sugars from the 5' end d7 Y1 d6, backbone not given here)	37 °C
5′-d(TTTTTTTTTTTTTT)-3′ (SEQ ID NO: 89): partly modified poly-T oligonucleotide with Z^T (48, 49) (DNA dTdTdTdTdTlTlTlTlTdTdTdTdTdT)	52 °C
